Test: GA glucuronidation kinetics in human liver microsomes
Format: in vitro ADME
Conditions: both, human, human liver microsomes, pH 7.4, Clint, HLM, M2 formation, Vmax/Km
Property Measured: microsomal CLint (µL/min/mg)
Answers are plain numbers, in µL/min/mg.

IN: Provide measured microsomal CLint value, entry: CC1(C)C=Cc2c(ccc3c2OC[C@@H](c2ccc(O)cc2O)C3)O1
OUT: 10

----------
Assay: GA glucuronidation kinetics in human intestinal microsomes
Type: in vitro ADME
Conditions: both, human, human intestinal microsomes, pH 7.4, Clint, HIM, M2 formation (text)
Property Measured: microsomal CLint (µL/min/mg)
Give bare numbers, in µL/min/mg.

IN: Provide measured microsomal CLint value, entry: CC1(C)C=Cc2c(ccc3c2OC[C@@H](c2ccc(O)cc2O)C3)O1 [GA, glabridin]
OUT: 2000

----------
Assay: GA glucuronidation kinetics in rat liver microsomes
Assay type: in vitro ADME, Sprague-Dawley rats
Details: male, Sprague-Dawley, rat, liver microsomes, pH 7.4
Property Measured: Km at 20 min (µM)
One number for each entry, in µM.

IN: Provide measured Km at 20 min value, entry: CC1(C)C=Cc2c(ccc3c2OC[C@@H](c2ccc(O)cc2O)C3)O1 [GA, glabridin]
OUT: 3.9

----------
Experiment: GA glucuronidation kinetics in beagle dog liver microsomes
Format: in vitro ADME, beagle dogs
Details: beagle, dog, liver microsomes, pH 7.4, Km (KS), DLM, M2 formation, Michaelis–Menten
Property Measured: Km at 30 min (µM)
Give bare numbers, in µM.

IN: Provide measured Km at 30 min value, entry: CC1(C)C=Cc2c(ccc3c2OC[C@@H](c2ccc(O)cc2O)C3)O1
OUT: 29

----------
Test: GA glucuronidation kinetics in human intestinal microsomes
Assay type: in vitro ADME
Settings: both, human, human intestinal microsomes, pH 7.4, Clint, HIM, M2 formation
Property Measured: microsomal CLint (µL/min/mg)
Give bare numbers, in µL/min/mg.

IN: Provide measured microsomal CLint value, entry: CC1(C)C=Cc2c(ccc3c2OC[C@@H](c2ccc(O)cc2O)C3)O1
OUT: 2010

----------
Assay: GA glucuronidation kinetics in human liver microsomes
Assay type: in vitro ADME
Conditions: both, human, liver microsomes, pH 7.4, Km (KS), HLM, M1 formation, Michaelis–Menten
Property Measured: Km at 60 min (µM)
One number for each entry, in µM.

IN: Provide measured Km at 60 min value, entry: CC1(C)C=Cc2c(ccc3c2OC[C@@H](c2ccc(O)cc2O)C3)O1 [GA, glabridin]
OUT: 6.3

----------
Experiment: GA glucuronidation kinetics in rat intestinal microsomes
Type: in vitro ADME, Sprague-Dawley rats
Details: male, Sprague-Dawley, rat, rat intestinal microsomes, pH 7.4, Cltotal, RIM
Property Measured: microsomal CLint (µL/min/mg)
Numbers only, in µL/min/mg.

IN: Provide measured microsomal CLint value, entry: CC1(C)C=Cc2c(ccc3c2OC[C@@H](c2ccc(O)cc2O)C3)O1 [GA, glabridin]
OUT: 5000

----------
Molecular target: UGT1A8 (Homo sapiens)
Sequence (Q9HAW9 26-530): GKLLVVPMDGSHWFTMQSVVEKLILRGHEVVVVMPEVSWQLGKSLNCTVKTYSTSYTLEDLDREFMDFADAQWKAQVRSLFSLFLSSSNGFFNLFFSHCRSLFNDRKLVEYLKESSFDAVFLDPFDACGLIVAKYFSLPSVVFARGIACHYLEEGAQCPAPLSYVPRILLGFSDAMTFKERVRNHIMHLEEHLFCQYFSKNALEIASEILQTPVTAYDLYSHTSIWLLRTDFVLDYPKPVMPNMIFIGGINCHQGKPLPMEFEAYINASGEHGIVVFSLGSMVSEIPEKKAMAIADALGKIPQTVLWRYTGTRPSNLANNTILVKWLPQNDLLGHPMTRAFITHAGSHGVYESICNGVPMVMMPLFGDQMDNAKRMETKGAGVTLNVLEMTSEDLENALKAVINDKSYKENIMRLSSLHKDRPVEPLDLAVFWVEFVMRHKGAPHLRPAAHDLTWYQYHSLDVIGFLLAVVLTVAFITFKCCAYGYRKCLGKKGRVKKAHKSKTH
Test: GA glucuronidation by recombinant UGT1A8
Format: in vitro ADME
Settings: human, recombinant UGT1A8, pH 7.4
Property Measured: microsomal CLint (µL/min/mg)
Answers are plain numbers, in µL/min/mg.

IN: Provide measured microsomal CLint value, entry: CC1(C)C=Cc2c(ccc3c2OC[C@@H](c2ccc(O)cc2O)C3)O1 [GA, glabridin]
OUT: 172

----------
Experiment: GA glucuronidation kinetics in human intestinal microsomes
Type: in vitro ADME
Details: both, human, human intestinal microsomes, pH 7.4, Cltotal, HIM
Property Measured: microsomal CLint
Record the result as a number with its unit.

IN: Provide measured microsomal CLint value, entry: CC1(C)C=Cc2c(ccc3c2OC[C@@H](c2ccc(O)cc2O)C3)O1
OUT: 2010 µL/min/mg

----------
Experiment: GA glucuronidation kinetics in cynomolgus monkey liver microsomes
Format: in vitro ADME, cynomolgus monkeys
Conditions: cynomolgus monkey, liver microsomes, pH 7.4, Km (KS), CyLM, M1 formation, Michaelis–Menten
Property Measured: Km at 60 min (µM)
Answers are plain numbers, in µM.

IN: Provide measured Km at 60 min value, entry: CC1(C)C=Cc2c(ccc3c2OC[C@@H](c2ccc(O)cc2O)C3)O1
OUT: 10
